# PROTOCOL NOTES: soluble fraction after stress (log2 fold change); higher = more stays soluble; pooled small domains, quantitative proteomics
# CONDITION: stress: 50 degC
Threshold rule: soluble fraction (log2) greater than or equal to -0.006 is Condition met; below that, Condition not met.

Example cases with answers are listed next.
{"POLYMER SEQUENCE": "HMQTQVEVLVKYVLEDGTVYKEDKVSADIGAILDSGDLPMLSNDMKFIDDFLFYEVKESDNVIERKVAKLV", "ASSIGNED LABEL": "Condition met"}
{"POLYMER SEQUENCE": "HMGIAKLLTEQEYKIALLAAERRTNAMIAEEMNLTENTVKTHLKHIFDKVGIAGNAKNKRHLLADMMNSER", "ASSIGNED LABEL": "Condition not met"}
{"POLYMER SEQUENCE": "HMLQPQMKKFLNYESARNKMRPFGLSTRKEWRLFVDEGNRPADIPGDPYKKYKNKGWISWPHFLGK", "ASSIGNED LABEL": "Condition not met"}
{"POLYMER SEQUENCE": "HMGKPTPASQVATRWLTGNLPESLPVAGPAPSFEALARTVSTDLHPRSVLQELVRLGVAEEANGVVTLRRQ", "ASSIGNED LABEL": "Condition not met"}
{"POLYMER SEQUENCE": "HMSVDDEQLLKIIDDIFQQNPQAVTDAKTDSNAIHFLIGQVMKETKGHADHAISKEIIEKKLS", "ASSIGNED LABEL": "Condition met"}

## Input Is reported soluble fraction (log2) greater than or equal to -0.006 here: "HMIAIGDDARLDDAARFFRIAEDSYAAGDYRKSKENYIEARKLYAELGDHEKVNLINSKISAIDSIT"
## Output Condition met

## Input Is reported soluble fraction (log2) greater than or equal to -0.006 here: "HMNKLKALREEQGLSMMEIAKQLNMPYTTYVNYEKGTREPNSEMLIKFSKFFNVTIDYLIGNSEQKN"
## Output Condition not met

## Input Is reported soluble fraction (log2) greater than or equal to -0.006 here: "HMFWVESDVDFVDKTSAHNAIKENERVIGMYISYRLNGTWTTEQYVGIDTSKDNWENPDNWNIL"
## Output Condition not met

###

# PROTOCOL NOTES: soluble fraction after stress (log2 fold change); higher = more stays soluble; pooled small domains, quantitative proteomics
# CONDITION: stress: 50 degC
OBSERVABLE: soluble fraction (log2)

Past entries and their recorded results:
{"POLYMER SEQUENCE": "HMGVRDIRIFERNNSFFVNAEIRGEAQLSVPITRTDYQLFKENKIDALSLVEKYYAEELNASNEMK", "soluble fraction (log2)": -0.164}
{"POLYMER SEQUENCE": "HMVSTGIMVVDGRGSVLQHNEAALRQLGVEVLTFESQVKEKLASEDFSVRETTAMLNGKKVRIIAFSDIR", "soluble fraction (log2)": -1.62}
{"POLYMER SEQUENCE": "HMSEPRYRQLATILAQEIRSNHSAGDQLPSEQALAKRFEVNRHTVRRAVDELVAAGMVTRHQGWGTQVV", "soluble fraction (log2)": -0.0244}
{"POLYMER SEQUENCE": "HMETAESLLRRLIMLEDPAMQNAMYVLAVMLERGKQLVERAAKPHESGGILRVYEHKKSGDTFVVLDPR", "soluble fraction (log2)": -0.511}
{"POLYMER SEQUENCE": "HMLKLSGEESQQLALRLREELARRRITRQGLADAAKISISTLEQVLAGRRTFTLATIVRLEEGLGIKLL", "soluble fraction (log2)": -1.89}
{"POLYMER SEQUENCE": "HMKWGDTPTVEVPNLIGMKKKDLQTQLVDLKLDISGDGEKVIKQSPEAGAKVKEGSKIRIYFG", "soluble fraction (log2)": -0.0661}
{"POLYMER SEQUENCE": "HMSVADNALSRQAIESRIALFIQNEDPNHPRSDADIQKELAQAGVVISRRAITKYRNHLHIPSASLRRR", "soluble fraction (log2)": -1.03}
{"POLYMER SEQUENCE": "HMGVNEGVNKLFKTIQETPGKRMPYYALATDVPEKTIERWLKQLREEGKIEFKGSAKTGGYFVIDK", "soluble fraction (log2)": 0.0649}

Respectfully, I request soluble fraction (log2) for each entry included below.
1. HMHPVEPDDPDQHILFQHLRGQDQVHIDALIRLSGWTADKVSSTLLFMELQGLVKQLPGMYYALE
2. HMLPELIVTTKKGVTVTVTNGVITYSATSNGKATFTVPNYGKWTVSATINGTVISKVVDVTEAKQIPVLLG
3. HMTATDRQLQLIAYTAARLMAEQGIADFNAAKRKAIQTLGLPNNAKLPGNADVEAQLRAYQRIF
4. HMKMQPVISQGVLYINNVTDVRTIEVFDISGRIVADAAASTTVNIAHLNEGPYIVKVTTVNGIESIKILNK

## Output
-0.0844
0.196
-0.133
-0.223

Respectfully, I request soluble fraction (log2) for each entry included below.
1. HMIVDARNREINLGSHVRYVDTGTVGEVTDSKVENDASWVKIDKTNLWYLANKLELLNDEDFKT
2. HMQNAMQKELIDAFQKAYPDLDITKIELVYGTYYEVEAMNSTTEFTYRYDQNSKTFILAEQDNADP
3. HMNEYSLVPDIYGMTYDDALSSLRNVGLDGRLALASTNEDLANADTRVVWQSKEAGSIIDKGSNVMFVID
4. HMLEIDPPVDEISVSRKAFYEAAGYKVNPYTHIPPRYRKEFEEHSFVVMSWPRELPEETYRKFDRYLRDV
5. HMKSATGKIPDFISDLPVDEFVRELIVTNAFQPLNKFKEVQNHIGSALKIYVDELTEKRANGTVHILYSHK

## Output
0.0653
-0.202
0.0609
0.103
0.077
